# Ki values compiled below
molecular target: M2 muscarinic receptor (Rattus norvegicus, UniProt P10980); construct: Submandibular glands and heart were isolated and placed in ice cold homogenizing buffer; from tissue; host or cells: rat heart membrane homogenate; assay: Radioligand binding assay, [3H]-N-methylscopolamine, rat heart membranes; conditions: [3H]NMS binding
Sequence (P10980 whole entry): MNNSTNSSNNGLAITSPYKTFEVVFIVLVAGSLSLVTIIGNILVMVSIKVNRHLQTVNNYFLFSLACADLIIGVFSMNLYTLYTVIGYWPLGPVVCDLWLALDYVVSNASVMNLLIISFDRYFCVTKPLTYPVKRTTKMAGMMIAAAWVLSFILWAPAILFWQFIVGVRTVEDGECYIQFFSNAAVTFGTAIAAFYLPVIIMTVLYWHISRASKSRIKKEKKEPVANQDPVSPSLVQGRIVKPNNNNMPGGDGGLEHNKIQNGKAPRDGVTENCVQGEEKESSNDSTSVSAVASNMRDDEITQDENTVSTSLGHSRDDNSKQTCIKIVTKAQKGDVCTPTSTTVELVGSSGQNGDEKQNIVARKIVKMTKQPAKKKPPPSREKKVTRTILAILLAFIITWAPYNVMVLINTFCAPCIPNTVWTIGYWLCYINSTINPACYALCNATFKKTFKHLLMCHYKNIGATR
// units = nM; emit number, no label

Illustrative cases are given below, each with its answer.
>>> print(df.to_string())
                                   compound  quantity_kind  value_observed
0  Cc1ccc(O)c(C(CCN2CC3CC3C2)c2ccccc2)c1 (stereo not drawn) [Compound No. 2]             Ki             105
1  Cc1ccc(O)c(C(CCN2CC3CC3C2C)c2ccccc2)c1 (single isomer, unassigned) [Compound No. 8]             Ki              34
2  Cc1ccc(O)c(C(CCN2CC3CC3C2C)c2ccccc2)c1 (single isomer, unassigned) [Compound No. 9]             Ki              42

Alright, here's another compound for you.
Check the records and state Ki for Cc1ccc(O)c(C(CCN2CC3CC3(C)C2)c2ccccc2)c1 (stereo not drawn) [Compound No. 6] 221
